- tested target: β-catenin/Tcf protein-protein interaction (Homo sapiens)
- Construct: Wild-type β-catenin (residues 138-781) were cloned into a pET-28b vector; 6×histidine (C); made in house; host or cells: E. coli BL21 DE3
- Sequence (P35222 138-781): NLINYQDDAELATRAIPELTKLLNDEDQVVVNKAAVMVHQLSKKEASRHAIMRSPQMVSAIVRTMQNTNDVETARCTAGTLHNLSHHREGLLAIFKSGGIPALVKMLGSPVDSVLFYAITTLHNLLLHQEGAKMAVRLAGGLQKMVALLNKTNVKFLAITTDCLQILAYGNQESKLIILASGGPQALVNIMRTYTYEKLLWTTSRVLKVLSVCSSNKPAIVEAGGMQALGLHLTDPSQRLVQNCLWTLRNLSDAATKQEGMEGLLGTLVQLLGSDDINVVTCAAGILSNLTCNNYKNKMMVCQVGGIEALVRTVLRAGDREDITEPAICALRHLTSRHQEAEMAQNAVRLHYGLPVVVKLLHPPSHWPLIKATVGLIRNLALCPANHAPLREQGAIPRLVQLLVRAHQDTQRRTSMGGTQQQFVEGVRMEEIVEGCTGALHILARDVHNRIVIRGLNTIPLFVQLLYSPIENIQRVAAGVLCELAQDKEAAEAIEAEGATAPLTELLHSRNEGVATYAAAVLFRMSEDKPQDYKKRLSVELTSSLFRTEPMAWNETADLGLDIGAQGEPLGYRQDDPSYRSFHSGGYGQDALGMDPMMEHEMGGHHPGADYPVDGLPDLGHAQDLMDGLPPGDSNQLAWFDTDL
- test method notes: FP competitive inhibition assay
- Assay type: binding
- condition: Assay 1, mean ± SD (n = 3), read-out: Ki ± SD, Assay 1
pKi: −log10 of the molar value.
endpoint: pKi

Worked examples follow.
O=C(O)c1ccc2c(c1)c(CCc1ccc3c(c1)OCCO3)cn2CCc1nn[nH]n1; 4.46
COc1ccc2sc(C#Cc3c(CCc4ccc(Cl)cc4)c4cc(C(=O)O)ccc4n3CCc3nn[nH]n3)nc2c1; 6.74
COc1ccc2nc(C#Cc3c(CCc4ccc5c(c4)OCCO5)c4cc(C(=O)O)ccc4n3CCc3nn[nH]n3)sc2c1; 5.74
O=C(O)CCn1c(CCc2nc3ccccc3s2)c(CCc2ccc(F)cc2)c2cc(C(=O)O)ccc21; 4.72

P = Cc1ccc(CCc2c(CCc3nc4ccccc4s3)n(CCC(=O)O)c3ccc(C(=O)O)cc23)cc1
Q = O=C(NCc1ccon1)c1ccc2c(c1)c(CCC1CCCCC1)c(-c1ccsc1)n2CCc1nn[nH]n1
R = O=C(O)c1ccc2c(c1)c(CCc1ccc(Cl)cc1)c(CCc1nc3cc(Cl)ccc3s1)n2CCc1nn[nH]n1
S = O=C(O)c1ccc2c(c1)c(CCc1ccncc1)cn2CCc1nn[nH]n1
Asked: Order the items by recorded pKi; the first position goes to the largest value. Respond with an ordered listing of the labels, as requested.
Given back: R, Q, P, S

###

- tested target: β-catenin/Tcf protein-protein interaction (Homo sapiens, UniProt P35222)
- Construct: Wild-type β-catenin (residues 138-781) were cloned into a pET-28b vector; 6×histidine (C); made in house; host or cells: E. coli BL21 DE3
- test method notes: FP competitive inhibition assay
- Format: binding
- condition: Assay 1, mean ± SD (n = 3), read-out: Ki ± SD, Assay 1
pKi: −log10 of the molar value.
endpoint: pKi

Cc1ccc(CCc2c(-c3ccsc3)n(CCc3nn[nH]n3)c3ccc(C(=O)O)cc23)cc1 [Compound 78]; 6.40

A = COc1ccc(CCc2cn(CCc3nn[nH]n3)c3ccc(C(=O)O)cc23)cc1 [Compound 8]
B = COc1ccc2sc(CCc3c(CCc4ccc(Cl)cc4)c4cc(C(=O)O)ccc4n3CCc3nn[nH]n3)nc2c1 [Compound 31]
Asked: Thinking about recorded pKi values, which is higher, A or B ? In your reply, give the label of the chosen option.
Given back: B

I = COc1ccc2sc(CCc3c(CCc4ccc(Cl)cc4)c4cc(C(=O)NCCOc5ccc(Cl)cc5)ccc4n3CCc3nn[nH]n3)nc2c1 [Compound 50]
II = COc1ccc2sc(CCc3c(CCc4ccc(Cl)cc4)c4cc(C(=O)NCC5CCOC5)ccc4n3CCc3nn[nH]n3)nc2c1 (stereo not shown) [Compound 65]
Asked: Thinking about recorded pKi values, which is higher, I or II ? In your reply, give the label of the chosen option.
Given back: I

a = O=C(O)c1ccc2c(c1)c(CCc1ccc(F)cc1)c(CCc1nc3ccccc3s1)n2CCc1nn[nH]n1 [Compound 26]
b = COc1ccc2sc(CCc3c(CCc4ccc(Cl)cc4)c4cc(C(=O)OCc5ccc(Cl)cc5)ccc4n3CCc3nn[nH]n3)nc2c1 [Compound 70]
Asked: Field: lower pKi | Options: a / b In your reply, give the label of the chosen option.
Given back: a
(a: 5.17, b: 5.59)

###

- tested target: β-catenin/Tcf protein-protein interaction (Homo sapiens, UniProt P35222)
- Construct: Wild-type β-catenin (residues 138-781) were cloned into a pET-28b vector; 6×histidine (C); made in house; host or cells: E. coli BL21 DE3
- Sequence (P35222 138-781): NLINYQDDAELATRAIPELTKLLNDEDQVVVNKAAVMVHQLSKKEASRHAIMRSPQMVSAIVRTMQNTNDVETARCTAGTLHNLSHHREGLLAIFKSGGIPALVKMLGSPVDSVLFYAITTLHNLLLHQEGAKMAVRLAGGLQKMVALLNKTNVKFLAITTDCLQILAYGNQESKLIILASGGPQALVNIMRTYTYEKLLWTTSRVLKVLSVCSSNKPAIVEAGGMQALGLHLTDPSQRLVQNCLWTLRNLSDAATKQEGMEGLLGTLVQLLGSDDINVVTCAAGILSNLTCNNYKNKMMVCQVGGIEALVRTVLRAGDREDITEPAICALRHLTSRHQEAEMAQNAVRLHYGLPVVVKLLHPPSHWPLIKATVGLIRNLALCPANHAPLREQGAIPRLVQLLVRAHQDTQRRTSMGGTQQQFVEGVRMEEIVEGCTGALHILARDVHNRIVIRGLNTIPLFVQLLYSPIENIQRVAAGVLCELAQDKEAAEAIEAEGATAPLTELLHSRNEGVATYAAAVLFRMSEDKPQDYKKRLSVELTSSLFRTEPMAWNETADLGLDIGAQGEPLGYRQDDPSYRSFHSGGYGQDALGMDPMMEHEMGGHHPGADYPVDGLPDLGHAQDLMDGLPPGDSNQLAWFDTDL
- test method notes: FP competitive inhibition assay
- Format: binding
- condition: Assay 2, mean ± SD (n = 3), read-out: Ki ± SD, Assay 2
- Description: Protein Expression and Purification. Wild-type β-catenin (residues 138-781) were cloned into a pET-28b vector carrying a C-terminal 6×histidine (Novagen) and transformed into E. coli BL21 DE3 (Novagen). […] The purity of β-catenin was set to >95% as determined by SDS-PAGE gel analysis. […] In the thermal shift assay, protein unfolding was evaluated through measuring the fluorescence changes of fluorescent dye Sypro Orange with purified β-catenin proteins. […]
endpoint: Ki (µM)

a = O=C(O)CCn1c(CCc2nc3ccccc3[nH]2)c(CCc2ccc(Cl)cc2)c2cc(C(=O)O)ccc21 [Compound 41]
b = Cc1cn(CCc2nn[nH]n2)c2ccccc12 [Compound 2]
c = COc1ccc2nc(C#Cc3c(CCC4CCOCC4)c4cc(C(=O)O)ccc4n3CCc3nn[nH]n3)sc2c1 [Compound 74]
d = Cc1ccc(CCc2c(-c3cccnc3)n(CCc3nn[nH]n3)c3ccc(C(=O)O)cc23)cc1 [Compound 82]
Asked: // sort entries: Ki, high to low Respond with an ordered listing of the labels, as requested.
Given back: b, d, a, c

###

- tested target: β-catenin/Tcf protein-protein interaction (Homo sapiens)
- Construct: Wild-type β-catenin (residues 138-781) were cloned into a pET-28b vector; 6×histidine (C); made in house; host or cells: E. coli BL21 DE3
- Sequence (P35222 138-781): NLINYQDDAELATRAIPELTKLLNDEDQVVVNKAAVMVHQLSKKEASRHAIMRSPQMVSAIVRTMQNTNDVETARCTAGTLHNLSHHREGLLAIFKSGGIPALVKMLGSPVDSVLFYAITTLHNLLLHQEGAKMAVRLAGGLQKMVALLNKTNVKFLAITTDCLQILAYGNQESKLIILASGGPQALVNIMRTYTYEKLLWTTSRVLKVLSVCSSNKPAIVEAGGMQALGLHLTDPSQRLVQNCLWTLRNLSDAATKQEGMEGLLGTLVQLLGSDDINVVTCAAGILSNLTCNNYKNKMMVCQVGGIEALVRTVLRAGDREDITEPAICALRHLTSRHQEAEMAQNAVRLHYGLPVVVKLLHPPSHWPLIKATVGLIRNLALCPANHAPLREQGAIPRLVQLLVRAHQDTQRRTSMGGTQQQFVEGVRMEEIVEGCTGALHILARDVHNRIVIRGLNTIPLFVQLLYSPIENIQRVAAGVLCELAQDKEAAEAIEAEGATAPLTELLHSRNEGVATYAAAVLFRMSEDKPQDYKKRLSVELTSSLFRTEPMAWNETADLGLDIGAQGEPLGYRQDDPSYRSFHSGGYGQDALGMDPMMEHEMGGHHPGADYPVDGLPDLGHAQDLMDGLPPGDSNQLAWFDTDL
- test method notes: FP competitive inhibition assay
- Type: binding
- condition: Assay 2, mean ± SD (n = 3), read-out: Ki ± SD, Assay 2
- Method: Protein Expression and Purification. Wild-type β-catenin (residues 138-781) were cloned into a pET-28b vector carrying a C-terminal 6×histidine (Novagen) and transformed into E. coli BL21 DE3 (Novagen). […] The purity of β-catenin was set to >95% as determined by SDS-PAGE gel analysis. […] In the thermal shift assay, protein unfolding was evaluated through measuring the fluorescence changes of fluorescent dye Sypro Orange with purified β-catenin proteins. […]
endpoint: Ki (µM)

COc1ccc2sc(CCc3c(CCc4ccc(Cl)cc4)c4cc(C(=O)NCc5ccon5)ccc4n3CCc3nn[nH]n3)nc2c1; 7.6

A = COc1ccc2sc(CCc3c(CCc4ccc(Cl)cc4)c4cc(C(=O)NCCc5ccc(Cl)cc5)ccc4n3CCc3nn[nH]n3)nc2c1
B = O=C(O)c1ccc2c(c1)c(CCc1ccncc1)cn2CCc1nn[nH]n1
Asked: Thinking about recorded Ki values, which is higher, A or B ? In your reply, give the label of the chosen option.
Given back: B
(B: 18 µM, A: 3.2 µM)
